B1: glmS ribozyme (parent)
chain: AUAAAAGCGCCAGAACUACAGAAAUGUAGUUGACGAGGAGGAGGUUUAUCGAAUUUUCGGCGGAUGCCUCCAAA

- Variants of: B1
- protocolNotes: self-cleavage kobs at 160 uM GlcN6P; higher = faster cleavage; RNA array
- experimentalParameters: with glucosamine-6-phosphate
Fewer inactive variants are shown than the library holds.
Reported self-cleavage kobs at 160 uM GlcN6P is given for each of the following variants.
observedProperty: self-cleavage kobs at 160 uM GlcN6P

{"mutationList": "U31G U49C C67U", "recordedValue": "< 1e-05 s⁻¹"}
{"mutationList": "A42C G66C", "recordedValue": "< 1e-05 s⁻¹"}
{"mutationList": "U31A G66U", "recordedValue": "7.61e-05 s⁻¹"}
{"mutationList": "G40A U54C", "recordedValue": "0.000724 s⁻¹"}
{"mutationList": "G7U G38C C50A", "recordedValue": "< 1e-05 s⁻¹"}
{"mutationList": "A12U G13C", "recordedValue": "< 1e-05 s⁻¹"}
{"mutationList": "A14G C71G", "recordedValue": "0.000718 s⁻¹"}
{"mutationList": "G35C U65G", "recordedValue": "< 1e-05 s⁻¹"}
{"mutationList": "C50G G51U", "recordedValue": "< 1e-05 s⁻¹"}
{"mutationList": "G7A G35C G59A C67G", "recordedValue": "< 1e-05 s⁻¹"}
{"mutationList": "G9A G13A", "recordedValue": "< 1e-05 s⁻¹"}
{"mutationList": "U49G A53G A64G C67A", "recordedValue": "5.27e-05 s⁻¹"}
{"mutationList": "A15G A42C", "recordedValue": "< 1e-05 s⁻¹"}
{"mutationList": "A33G U69A", "recordedValue": "4.13e-05 s⁻¹"}
{"mutationList": "G7C U47A", "recordedValue": "< 1e-05 s⁻¹"}
{"mutationList": "C16U U46G", "recordedValue": "0.000489 s⁻¹"}
{"mutationList": "A6U C8U", "recordedValue": "< 1e-05 s⁻¹"}
{"mutationList": "C11U C58G C68U", "recordedValue": "0.000349 s⁻¹"}
{"mutationList": "G63A A64C", "recordedValue": "< 1e-05 s⁻¹"}
{"mutationList": "U49C G59A C67G", "recordedValue": "< 1e-05 s⁻¹"}
{"mutationList": "G7A A14C A36C A64U", "recordedValue": "< 1e-05 s⁻¹"}
{"mutationList": "U31G C67U", "recordedValue": "0.000329 s⁻¹"}
